# experimental-target: T1, hnRNP-Q1 RGG box peptide (UniProt O60506-3 406-561)
# T1 sequence: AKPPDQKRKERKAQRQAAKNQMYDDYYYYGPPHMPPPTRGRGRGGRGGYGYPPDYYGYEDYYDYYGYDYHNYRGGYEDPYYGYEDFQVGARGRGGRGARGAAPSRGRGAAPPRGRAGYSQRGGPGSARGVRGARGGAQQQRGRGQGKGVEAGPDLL
# assay: fluorescence spectroscopy
measurement-type: Kd (nM)

• GGGAGGGAGGGAGGGAGAGC (structured_RNA, 2-aminopurine replaces A4) [2AP Gap-43 5'GQ RNA] = 131
